assay: Permeability in artificial phospholipid membrane by AMPA based HPLC/UV analysis; type: ADME, cell membranes; details: not told; read-out: permeability

compound: CCCCC1CCCN1C(=O)C1CCCC(c2cccc(-n3ncc(C(=O)O)c3C3CC3)c2)C1 (mixture of isomers)
u: ×10⁻⁶ cm/s
qualifier_operator: =
Papp: 2.7
--
compound: CCCC1CCCCN1C(=O)c1cccc(-c2cccc(-n3ncc(C(=O)O)c3C3CC3c3cn(C)nn3)c2)c1 (mixture of isomers)
u: ×10⁻⁶ cm/s
qualifier_operator: =
Papp: 3.7
--
compound: CCC[C@@H]1CCCCN1C(=O)c1cccc(-c2cccc(-n3ncc(C(=O)O)c3[C@H]3C[C@@H]3c3cn(C)nn3)c2)c1
u: ×10⁻⁶ cm/s
qualifier_operator: =
Papp: 1.6
--
compound: CCCC1CCCCN1C(=O)C1CCCC(c2cccc(-n3ncc(C(=O)O)c3C3CC3)c2)C1 (mixture of isomers)
u: ×10⁻⁶ cm/s
qualifier_operator: =
Papp: 1.1
--
compound: CCCC[C@@H]1CCCN1C(=O)[C@H]1CCC[C@@H](c2cccc(-n3ncc(C(=O)O)c3C3CC3)c2)C1
u: ×10⁻⁶ cm/s
qualifier_operator: =
Papp: 1.6
--
compound: CCCC1CCCCN1C(=O)c1cccc(-c2cccc(-n3ncc(C(=O)O)c3C3CC3c3cccnc3)c2)c1 (mixture of isomers)
u: ×10⁻⁶ cm/s
qualifier_operator: =
Papp: 13
--
compound: O=C(O)c1cnn(-c2cccc(-c3cccc(C(=O)N4CCCCC4)c3F)c2)c1C1CC1
u: ×10⁻⁶ cm/s
qualifier_operator: <
Papp: 0.3
--
compound: CCC[C@H]1CCCCN1C(=O)c1cccc(-c2cccc(-n3ncc(C(=O)O)c3C3CC3)c2)c1F
u: ×10⁻⁶ cm/s
qualifier_operator: =
Papp: 6.3
--
compound: CCC[C@@H]1CCCCN1C(=O)c1cccc(-c2cccc(-n3ncc(C(=O)O)c3C3CC3)c2)c1F
u: ×10⁻⁶ cm/s
qualifier_operator: =
Papp: 2.7
--
compound: O=C(O)c1cnn(-c2cccc(-c3cccc(C(=O)N4CCCC5(CCCC5)C4)c3F)c2)c1C1CC1
u: ×10⁻⁶ cm/s
qualifier_operator: =
Papp: 1.2
--
compound: CCCC1CCCCN1C(=O)c1cccc(-c2cccc(-n3ncc(C(=O)O)c3C3CC3c3ccccn3)c2)c1 (mixture of isomers)
u: ×10⁻⁶ cm/s
qualifier_operator: =
Papp: 4
--
compound: CCC[C@@H]1CCCCN1C(=O)c1cccc(-c2cccc(-n3ncc(C(=O)O)c3[C@@H]3C[C@H]3c3cn(C)nn3)c2)c1
u: ×10⁻⁶ cm/s
qualifier_operator: =
Papp: 1.7
--
compound: CN(C)C(=O)c1cccc(-c2cccc(-n3ncc(C(=O)O)c3C3CC3)c2)c1F
u: ×10⁻⁶ cm/s
qualifier_operator: <
Papp: 0.3
--
compound: CN(C)C(=O)[C@H]1CCC[C@@H](c2cccc(-n3ncc(C(=O)O)c3C3CC3)c2)C1 (racemic)
u: ×10⁻⁶ cm/s
qualifier_operator: <
Papp: 0.3
--
compound: O=C(O)c1cnn(-c2cccc([C@@H]3CCC[C@H](C(=O)N4CCCCC4)C3)c2)c1C1CC1 (racemic)
u: ×10⁻⁶ cm/s
qualifier_operator: <
Papp: 0.3
--
compound: CN(C)C(=O)c1cccc(-c2cccc(-n3ncc(C(=O)O)c3C3CC3)c2)c1
u: ×10⁻⁶ cm/s
qualifier_operator: <
Papp: 0.3
--
compound: CN(CC1CC1)C(=O)c1cccc(-c2cccc(-n3ncc(C(=O)O)c3C3CC3)c2)c1F
u: ×10⁻⁶ cm/s
qualifier_operator: =
Papp: 0.3

###

target: Keap1/Nrf2 (Homo sapiens); test: Inhibition of 5'-TAMRA tagged NRF2 (unknown origin)/human recombinant N-terminal Avi tagged KEAP-1 (321 to 609 residues) expressed in Baculovirus system infected in Sf9 cells protein-protein interaction by fluorescence polarisation assay; settings: read-out: IC50
Sequence (Q16236 whole entry, the tested form may be a part): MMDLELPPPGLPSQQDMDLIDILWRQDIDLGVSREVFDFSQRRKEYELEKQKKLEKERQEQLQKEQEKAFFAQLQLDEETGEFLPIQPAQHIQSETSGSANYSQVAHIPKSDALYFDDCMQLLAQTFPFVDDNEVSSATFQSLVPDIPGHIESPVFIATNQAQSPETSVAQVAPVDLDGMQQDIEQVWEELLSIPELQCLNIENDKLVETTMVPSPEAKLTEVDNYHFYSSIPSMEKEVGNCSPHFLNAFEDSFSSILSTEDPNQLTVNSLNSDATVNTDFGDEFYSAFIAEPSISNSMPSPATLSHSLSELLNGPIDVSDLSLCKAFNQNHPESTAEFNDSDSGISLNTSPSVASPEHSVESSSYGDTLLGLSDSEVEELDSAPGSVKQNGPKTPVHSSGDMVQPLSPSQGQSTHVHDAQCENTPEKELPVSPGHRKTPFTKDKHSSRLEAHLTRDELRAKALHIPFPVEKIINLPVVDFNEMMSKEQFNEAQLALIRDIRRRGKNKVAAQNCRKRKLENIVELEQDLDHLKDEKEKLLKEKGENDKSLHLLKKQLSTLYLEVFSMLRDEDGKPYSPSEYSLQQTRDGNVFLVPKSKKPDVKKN
Sequence (Q14145 whole entry, the tested form may be a part): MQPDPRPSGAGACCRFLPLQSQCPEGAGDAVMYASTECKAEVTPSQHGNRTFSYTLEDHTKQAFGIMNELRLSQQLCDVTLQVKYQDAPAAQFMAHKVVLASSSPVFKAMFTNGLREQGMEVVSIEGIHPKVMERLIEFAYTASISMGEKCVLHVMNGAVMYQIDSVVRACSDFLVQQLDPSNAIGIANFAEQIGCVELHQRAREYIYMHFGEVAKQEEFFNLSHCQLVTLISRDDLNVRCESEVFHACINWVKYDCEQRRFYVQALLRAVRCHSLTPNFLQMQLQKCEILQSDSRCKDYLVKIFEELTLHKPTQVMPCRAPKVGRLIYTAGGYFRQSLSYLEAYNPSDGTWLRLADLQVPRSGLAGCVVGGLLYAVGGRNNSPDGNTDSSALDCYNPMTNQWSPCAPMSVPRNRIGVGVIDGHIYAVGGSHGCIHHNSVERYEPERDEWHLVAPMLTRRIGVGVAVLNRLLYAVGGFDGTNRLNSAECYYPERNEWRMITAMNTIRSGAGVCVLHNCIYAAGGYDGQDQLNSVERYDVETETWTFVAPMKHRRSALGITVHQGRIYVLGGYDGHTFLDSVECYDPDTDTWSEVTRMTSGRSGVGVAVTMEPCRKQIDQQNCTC
pIC50: −log10 of the molar value.
pIC50 reference
property_measured: pIC50

structure: O=C(O)c1cnn(-c2ccccn2)c1C(F)(F)F
qualifier_operator: <
readout_number: 3.00
--
structure: CCC[C@H]1CCCCN1C(=O)c1cccc(-c2cccc(-n3ncc(C(=O)O)c3C3CC3)c2)c1F
qualifier_operator: =
readout_number: 7.22
--
structure: CC(=O)N1CCC(c2c(C(=O)O)cnn2-c2cccc(-c3cccc(C(=O)N(C)C)c3)c2)CC1
qualifier_operator: =
readout_number: 5.46
--
structure: CN(C)C(=O)c1cncc(-c2cccc(-n3ncc(C(=O)O)c3C(F)(F)F)c2)c1
qualifier_operator: =
readout_number: 5.43
--
structure: O=C(O)c1cnn(-c2ccccc2)c1C(F)(F)F
qualifier_operator: <
readout_number: 3.52
